- target-under-test: T1, polypeptide GC3pep (human)
- T1 construct: also called membrane proximal polypeptide GC3pep
- T1 peptide: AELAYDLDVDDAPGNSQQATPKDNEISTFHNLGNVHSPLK
- method: ELISA, GC3pep coated, antibody 100 nM;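 note: detection with an HRP-conjugated secondary antibody and TMB substrate, color reaction stopped with HCl before absorbance reading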
Recorded OD450 nm values for a group of binders are listed next.
The response must be a number in OD450 nm with no trailing unit.

| binder | scale-unit | numeric-value |
| --- | --- | --- |
| F1.42.8 (antibody, human IgG1, kappa, V domains shown, human-murine chimeric antibody) VH: HVQLQQPGAELVKPGASVKLSCKASGYTFTSYWMHWVRQRPGQGLEWIEMIHPNSGSTNYNEKFKSKATLTVDKSSSTAYMQLSSLTSEDSAVYYCARGNYNSSLYAMDYWGQGTSVTVSS VL: DIQMTQTTSSLSASLGDRVTISCSASQGISNYLNWYQQKPDGTVKLLIYYASNLHSGVPSRFSGSGSGTAYSLTISNLEPEDIATYYCQQYSILPYTFGGGTKLEIKR | OD450 nm | 0.06 |
| F2.152.3 (antibody, human IgG1, kappa, V domains shown, human-murine chimeric antibody) VH: EVQLQQSGPELVKPGASVKMSCKASGYTFTDYYMTWVKQSHGKSLEWIGRVNPRNGDTTYNQKFEGRATLTLDKSLSTAFMQLNSLTSEDSAVYYCINSKGHFDYWGQGTTLTVSS VL: DVLMTQTPLSLPVSLGDQASISCRSSQSIVHSNGNTYLEWFLQKPGQSPKSLIYKVSNRFSGVPDRFSGSGSGTDFTLKISRVEAEDLGVYYCFQGSHVPPTFGAGTKLELKR | OD450 nm | 2.63 |
| F1.136.7 (antibody, human IgG1, kappa, V domains shown, human-murine chimeric antibody) VH: EVQLQQSGPVMVKPGPSVKISCQTSGFTFTDYYIHWVKQSHGKSLEWIGLVFPYDGGTNYNQKFKDKATLTLDTSSSTAYMELNSLTSEDSAVYYCARAGGFSYALNYWGQGTSVTVSS VL: DIQMTQSPSSLSASLGGKVTITCKASQDINNYIAWYQHKPGKGPRLLIHFTSTLQPGIPSRFSGSGSGRDYSFSISNLEPEDIATYYCLQYDNLLLTFGAGTKLELKR | OD450 nm | 0.08 |
| F1.110.24 (antibody, human IgG1, kappa, V domains shown, human-murine chimeric antibody) VH: EVKLVESGGGLVQPGGSLKLSCAASGFTFSDFYMYWVRQTPEKRLEWVAFISNGGGSTYYPDTVKGRFTISRDNVKNTLYLQMSRLKSEDTAMYYCARPDTSWFAYWGQGSLVTVSA VL: DIQMTQTTSSLSASLGDRVTISCRASQDIDNYLNWYQQKPDGTVKVLISYTSRLHSGVPSRFSGSGSGTDYSLTISNLEQEDIATYFCQQGNTLPWTFGGGTKLEIKR | OD450 nm | 0.06 |

Moving on to another binder below.
Problem: Reported OD450 nm, binder F1.115.8 (antibody, human IgG1, kappa, V domains shown, human-murine chimeric antibody) VH: EVQLQQSGPELVKPGASVKMSCKASGYTFTEYYMHWVKQSHGKSLEWIGYIYPNNGGNGYNQKFKGKATLTVDKSSSTAYMGLRSLTSEDSAVYYCVRGYYSNWYFDVWGTGTTVTVSS VL: DVLMTQTPLSLPVSLGDQASISCRSSQSIVHSNGKTYLEWYLQKPGQSPKLLIYKVSNRFSGVPDRFSGSGSGTDFTLKISRVEAEDLGVYYCFQGSHVPFTFGSGTKLEIKR : ____
Solution: 0.1

Data origin, for the record: patent US20260116991A1
